- Test protocol: physchem
- Test context: 25 °C, aqueous buffer
Reported metric: solubility

Please give the measured solubility for this molecule: CC1=C(N2CC2)C(=O)C(CO)=C(N2CC2)C1=O [RH1]
> 500 µg/mL

* * *

- Test protocol: clinical
- Parameters: species or system human
- Test context: human, in vivo, iv, half-life (clearance from the blood)
Reported metric: half-life

Can you look up the measured half-life of CC1=C(N2CC2)C(=O)C(CO)=C(N2CC2)C1=O for me?
~6 min

* * *

- System tested: DT-Diaphorase (DTD) (Homo sapiens)
- Sequence (P15559 whole entry): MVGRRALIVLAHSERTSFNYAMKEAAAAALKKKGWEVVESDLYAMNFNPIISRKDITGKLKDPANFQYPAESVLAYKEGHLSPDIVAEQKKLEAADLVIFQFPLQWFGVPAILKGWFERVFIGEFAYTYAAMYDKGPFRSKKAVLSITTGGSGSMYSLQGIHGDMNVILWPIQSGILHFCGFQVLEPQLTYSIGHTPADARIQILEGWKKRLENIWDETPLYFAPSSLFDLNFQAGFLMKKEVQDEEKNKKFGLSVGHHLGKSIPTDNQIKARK
- Test protocol: Suitability as substrate for DTD (activation by DTD)
- Type: biochemical
Reported metric: DTD substrate

CO[C@@]12[C@H](COC(N)=O)C3=C(C(=O)C(C)=C(N)C3=O)N1C[C@@H]1N[C@@H]12 | Poor
CCOC(=O)NC1=C(N2CC2)C(=O)C(NC(=O)OCC)=C(N2CC2)C1=O | Moderate
Cn1c(/C=C/CO)c(CO)c2c1C(=O)C=C(N1CC1)C2=O | Moderate
O=C1C(NCCO)=C(N2CC2)C(=O)C(NCCO)=C1N1CC1 | Poor
